assay-summary: Mycobacterium tuberculosis growth inhibition, primary screen (AID 1259343)
measurement-conditions: at 10 µM, hits give high values
In all, about 6,200 compounds went through this assay and about 2,900 (47%) were called active. The set was probably picked from earlier hits. Some of the results follow.
Listing: inhibition of selected compounds
Give just the numeric value; % need not be written.

Study these solved cases before continuing.
COCC(Nc1ncc(Br)cn1)c1ccc(C)o1 (stereo not given) :: 38.8
CCCCn1c(C2CCCCC2)nc2oc3ccccc3c(=O)c2c1=O :: -33.2
O=C(N=C1N=C2C=CC(Br)=CN2Cc2ccccc21)c1ccccn1 :: 10.5
Cc1cccc(C)c1OC1CN(C(=O)C(=O)c2ccco2)C1 :: 45.6

Continue with the compound presented below.
// fetch inhibition given entry Cc1cccc(C)c1OCc1cc(C(=O)N2CCCC(c3ccccc3)C2)no1 (stereo not given)
47.2

* * *

assay-summary: Mycobacterium tuberculosis growth inhibition, primary screen (AID 1259343)
measurement-conditions: at 10 µM, hits give high values
About 2,900 (47%) of roughly 6,200 compounds were called active. So high a share suggests a set chosen from earlier hits. The list shows a part of the results.
outcome-measure: inhibition (%)
Kindly provide the numeric value in % only, without the unit symbol.

COc1ccc(Oc2cnn(-c3ccc(Cl)cc3)c(=O)c2Nc2ccc(C(=O)O)cc2)cc1 :: 28
COc1cccc(Nc2nccc3c2cc(-c2ccc(N(C)C)cc2)n3C)c1 :: 81.2

Name the recorded inhibition of the compound listed here: `Cc1ccc(Cn2nnc3c(SCc4cccnc4)ncnc32)cc1`
58.1

Provide inhibition value for the following compound: `O=C(CCl)N1CCN(Cc2cccc3ccccc23)CC1`
71.9

* * *

assay-summary: Mycobacterium tuberculosis growth inhibition, primary screen (AID 1259343)
measurement-conditions: at 10 µM, hits give high values
About 2,900 (47%) of roughly 6,200 compounds were called active. So high a share suggests a set chosen from earlier hits. The list shows a part of the results.
outcome-measure: inhibition

Use these answered entries as a reference point.
c1ccc(-c2nc3c(c(N4CCN(Cc5cccc6cccnc56)CC4)n2)CCC3)cc1 :: 31.1% (inactive)
N#Cc1c(-c2ccc(Br)cc2)csc1N1CCCCC1 :: 38.9% (inactive)
O=c1oc2ccc(O)cc2s1 :: 83.8% (active)
N#Cc1cccc(NC(=O)NCc2cc(F)cc(F)c2)c1 :: -9.78% (inactive)

Tell me its inhibition given `Cc1cc(=O)[nH]c(-n2nc(C)cc2NC(=O)C2CC2)n1` as the entry.
100% (active)

Answer with the recorded inhibition for the molecule listed here: `O=c1c2cc(O)ccc2oc2ccc(O)cc12`
87.5% (active)

Please report the measured inhibition for `O=S(=O)(CCNc1ccc(Br)cc1)c1ccc(Cl)cc1`
93.3% (active)

* * *

assay-summary: Mycobacterium tuberculosis growth inhibition, primary screen (AID 1259343)
measurement-conditions: at 10 µM, hits give high values
About 2,900 (47%) of roughly 6,200 compounds were called active. So high a share suggests a set chosen from earlier hits. The list shows a part of the results.
outcome-measure: inhibition (%)
Report as a plain number; the unit % is understood.

Cc1cc(=O)[nH]c(-n2nc(C)cc2NC(=O)c2cccc([N+](=O)[O-])c2)n1 :: 100
FC(F)(F)c1ccccc1CCNc1nncc(-c2ccccc2)n1 :: -20
CCOC(=O)/C=C/c1c([N+](=O)[O-])sc(Br)c1Br :: 103

Please supply the value of reported inhibition for the item `CCCOc1ccc(F)cc1-c1cc(C(=O)NC2CCCCC2)[nH]n1`
28

Retrieve inhibition measured for Cc1ccc(F)c(OCC2CN(CC(C)O)CCO2)c1 (stereo not drawn) and print it.
102

// fetch inhibition given entry `CCCCNC(=O)CSc1nnc(-c2ccc(OCC)cc2)o1`
81.2
